protocol.description: LEN plasma concentrations during oral bridging period, CALIBRATE (Phase 2, ARV-naive PWH)
Assay type: in vivo
assay.conditions: human, plasma, oral, 300 mg, Treatment Group 2, Week 20, read-out: Lower 90% CI of Concentration

molecule	unit.abbrev	concentration at 20 week
CC(C)(C#Cc1ccc(-c2ccc(Cl)c3c(NS(C)(=O)=O)nn(CC(F)(F)F)c23)c([C@H](Cc2cc(F)cc(F)c2)NC(=O)Cn2nc(C(F)(F)F)c3c2C(F)(F)[C@@H]2C[C@H]32)n1)S(C)(=O)=O [LEN]	ng/mL	40.2

* * *

protocol.description: LEN plasma concentrations during oral bridging period, CALIBRATE (Phase 2, ARV-naive PWH)
Type: in vivo
assay.conditions: human, plasma, sc, 300 mg, Treatment Group 2 (SC LEN + [DVY→BIC]), Day 1, read-out: Mean LEN plasma concentration
property.measured: concentration at 1 day (ng/mL)

CC(C)(C#Cc1ccc(-c2ccc(Cl)c3c(NS(C)(=O)=O)nn(CC(F)(F)F)c23)c([C@H](Cc2cc(F)cc(F)c2)NC(=O)Cn2nc(C(F)(F)F)c3c2C(F)(F)[C@@H]2C[C@H]32)n1)S(C)(=O)=O 26.7
